# assay method text: yeast display, Sf9 membrane polyspecificity reagent, FACS + sequencing; frameworks hold sequencing errors
measured metric: polyreactivity (PSR sort gate)

construct sequence	result
QVQLVESGGGLVQAGGSLRLSCAASGITFYGYTMGWYRQAPGKERELVAAITYFGSTYYADSVKGRFTISRDNAKNTVYLQMNSLKPEDTAVYYCAAQRFRSGWFGYWGQGTQVTVSS	high polyreactivity
QVQLVESGGGLVQAGGSLRLSCAASGSIFDYYAMGWYRQAPGKERELVAAISWSGGSTYYADSVKGRFTISRDNAKNTVYLQMNSLKPEDTAVYYCAAEYYGGELDYWGQGTQVTVSS	low polyreactivity
QVQLVESGGGLVQAGGSLRLSCAASGSNFGIYAMGWYRQAPGKERELVAAISSRGSTYYADSVKGRFTISRDNAKNTVYLQMNSLKPEDTAVYYCAAGYAWYNYWGQGTQVTVSS	high polyreactivity
QVQLVESGGGLVQAGGSLRLTCAASGITFKYKAMGWYRQAPGKEWELVAAISKGGGSTYYADSVKGRFTISRDNAKNTVYLQMNSLKPEVTAVYYCNAVPRRPVVSDTNPVGYDYWGEGTQVTVSS	low polyreactivity
QDQLVESGGGLVQAGGSLRLSCASSGSIITQYAMGWYRQAPGKERELVAAITSGGSPYADSVKGRFTISRDNAKNTVYLQMNSLKPEDTADYYCATPYSYRGVTFNYWGQGTQVTVSS	low polyreactivity
